Data origin, for the record: patent US11479551B2

Measured log10 IC50 values are reported for all entries that follow.
- Measured Target: PRMT5/MEP50 complex (Homo sapiens (Human), UniProt O14744)
- Sequence (O14744 2-637): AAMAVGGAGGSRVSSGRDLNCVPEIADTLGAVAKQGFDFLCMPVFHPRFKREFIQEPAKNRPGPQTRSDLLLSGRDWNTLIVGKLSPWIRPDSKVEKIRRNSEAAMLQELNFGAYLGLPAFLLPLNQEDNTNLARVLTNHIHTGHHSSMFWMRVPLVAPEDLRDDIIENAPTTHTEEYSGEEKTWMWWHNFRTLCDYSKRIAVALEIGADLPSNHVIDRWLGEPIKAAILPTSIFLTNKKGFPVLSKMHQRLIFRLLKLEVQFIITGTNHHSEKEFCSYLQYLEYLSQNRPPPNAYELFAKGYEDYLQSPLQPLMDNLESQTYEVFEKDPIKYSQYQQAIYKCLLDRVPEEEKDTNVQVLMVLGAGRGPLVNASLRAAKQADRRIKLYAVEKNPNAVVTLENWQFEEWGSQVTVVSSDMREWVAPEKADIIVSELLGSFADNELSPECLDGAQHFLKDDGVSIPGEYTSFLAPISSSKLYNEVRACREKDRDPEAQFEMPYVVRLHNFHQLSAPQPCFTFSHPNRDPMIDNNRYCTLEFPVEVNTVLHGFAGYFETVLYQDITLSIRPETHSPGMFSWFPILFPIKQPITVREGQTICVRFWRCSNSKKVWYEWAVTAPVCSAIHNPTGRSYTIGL
- Sequence (Q9BQA1 2-342 partner): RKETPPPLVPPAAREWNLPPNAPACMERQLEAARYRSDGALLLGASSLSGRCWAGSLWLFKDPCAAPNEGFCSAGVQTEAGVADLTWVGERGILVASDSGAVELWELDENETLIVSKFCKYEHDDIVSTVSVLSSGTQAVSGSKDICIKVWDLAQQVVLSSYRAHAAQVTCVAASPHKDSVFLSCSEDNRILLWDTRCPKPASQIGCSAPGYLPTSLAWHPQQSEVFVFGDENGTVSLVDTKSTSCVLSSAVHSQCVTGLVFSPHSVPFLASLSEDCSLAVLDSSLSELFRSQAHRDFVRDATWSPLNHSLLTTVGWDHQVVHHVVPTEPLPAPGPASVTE
- Protocol Text: PRMT5:MEP50 FlashPlate Assay (histone H4 peptide substrate, plus and minus MTA)
- Assay type: biochemical
- Assay Conditions: in the absence of MTA, read-out: IC50
Please keep in mind that the values are log10 of IC50 expressed in nM.

Entry COc1cccc(Oc2cncc(-c3ccc4c(=O)[nH]nc(CN)c4c3)c2)c1 [Example 4-68] : reported log10 IC50 = ?
2.39

Form field: reported log10 IC50 of NCc1n[nH]c(=O)c2ccc(-c3cncn4cccc34)cc12 [Example 4-13]
3.41

Please give the measured log10 IC50 for this compound: CN1CCn2ncc(-c3ccc4c(=O)[nH]nc(CN)c4c3)c2C1 [Example 4-11]
3.38

Fill blank: measured log10 IC50 of the compound NCc1n[nH]c(=O)c2ccc(-c3cncc(CO)c3)cc12 [Example 3-47] is ____.
3.47

Requested read-out: log10 IC50. Entry: NCc1n[nH]c(=O)c2ccc(-c3cncc(N4CCOCC4)c3)cc12 [Example 3-58]
3.91

Next:
Sample NCc1n[nH]c(=O)c2ccc(-c3cncc(Sc4ccccc4)c3)cc12 [Example 4-55] — what was its log10 IC50?
1.48

* * *

- Measured Target: PRMT5/MEP50 complex (Homo sapiens (Human))
- Protocol Text: PRMT5:MEP50 HotSpot Assay (full-length histone H2A substrate, plus and minus MTA)
- Format: biochemical
- Assay Conditions: in the absence of MTA; read-out: IC50
- Description: The PRMT5 inhibitory activity of compounds of the present invention was determined using either a PRMT5:MEP50 FlashPlate Assay (Reaction Biology Corporation) or a PRMT5:MEP50 HotSpot Assay (Reaction Biology Corporation). The assay uses recombinant full-length histone H2A as the PRMT5 substrate. […] The reaction was stopped and transferred to filter paper for detection. The amount of tritiated H2A in each sample was determined using a scintillation counter.
pIC50: −log10 of the molar value.
Experimental Readout: pIC50

Suppose we examine the molecule NCc1n[nH]c(=O)c2ccc(-c3cnc4[nH]ccc4c3)cc12 [Example 3-59] ; what pIC50 value has been reported?
< 5.00

Fill in the blank: the reported pIC50 of Cn1ncc(-c2ccc3c(=O)[nH]nc(CN)c3c2)c1-c1ccc2ccccc2c1C#N [Example 4-147] is ____.
6.55

Need pIC50, item NCc1n[nH]c(=O)c2ccc(-c3cncc(Oc4ccccc4Cl)c3)cc12 [Example 4-71]
< 5.00

Further cases:
Find the recorded pIC50 belonging to Cn1ncc(-c2ccc3c(=O)[nH]nc(CN)c3c2)c1-c1cccc(Cl)c1C#N [Example 4-119] and report it.
5.28

pIC50 lookup needed for Cc1cccc(-c2c(-c3ccc4c(=O)[nH]nc(CN)c4c3)cnn2C)c1C#N [Example 4-118] , thanks.
5.00

What measured pIC50 goes with Cn1ncc(-c2ccc3c(=O)[nH]nc(CN)c3c2)c1-c1ccccc1 [Example 4-32] ?
< 5.00

* * *

- Measured Target: PRMT5/MEP50 complex (Homo sapiens (Human), UniProt O14744)
- Protocol Text: PRMT5:MEP50 HotSpot Assay (full-length histone H2A substrate, plus and minus MTA)
- Type: biochemical
- Assay Conditions: IC50 + 2 μM MTA, in the presence of 2 μM MTA
Rule for this label: 1 means IC50 is less than 600 nM; 0 means IC50 is at least 600 nM.

Study these solved cases before continuing.
Is IC50 of COc1ccc(-c2c(-c3ccc4c(=O)[nH]nc(CN)c4c3)cnn2C)cc1 strictly below 600 nM?
0

IC50 under 600 nM? Item: CCc1cc(OC)cc(-c2c(-c3ccc4c(=O)[nH]nc(CN)c4c3)cnn2C)c1C#N
1

Please determine if Cc1cc(-c2cnn(C)c2-c2cccc(OC3CC3)c2C#N)cc2c(CN)n[nH]c(=O)c12 is below 600 nM in terms of IC50.
1

Further cases:
Hello, I'm reviewing records and need to know if IC50 of Cn1ncc(-c2ccc3c(=O)[nH]nc(CN)c3c2)c1-c1cccc(OC2CCC2)c1C#N is below 600 nM. Could you check?
0

Problem: For the molecule COc1cc(Cl)cc(-c2c(-c3ccc4c(=O)[nH]nc(CN)c4c3)cnn2C)c1C#N , is IC50 under 600 nM?
0

Check if IC50 falls below 600 nM for COc1cc(-c2c(-c3ccc4c(=O)[nH]nc(CN)c4c3)cnn2C)c(C#N)cc1Cl .
0

Lab note: IC50 threshold 600 nM. Does this molecule come in strictly under it? CCOc1ccn2ncc(-c3ccc4c(=O)[nH]nc(CN)c4c3)c2c1 [Example 4-158]
0

Is 600 nM strictly greater than the molecule's reported IC50? molecule: CCc1c(Cl)ccc(-c2c(-c3ccc4c(=O)[nH]nc(CN)c4c3)cnn2C)c1C#N
1

IC50 under 600 nM? Item: COc1ccc(-c2c(-c3ccc4c(=O)[nH]nc(CN)c4c3)cnn2C)c(C#N)c1
0

* * *

- System: HCT116 parental cells
- Protocol Text: Proliferation assay (CellTiter-Glo, 10 days of treatment), HCT116 parental
- Assay type: cell-based
Experimental Readout: pIC50
FYI, pIC50 means -log10 of a concentration in mol per litre.

Looking for the measured pIC50 of Cn1ncc(-c2ccc3c(=O)[nH]nc(CN)c3c2)c1-c1c(F)cc2ccccc2c1C#N (single isomer, unassigned) [Example 16-2] , can you help?
5.23

---
What value of measured pIC50 is listed for Cn1ncc(-c2ccc3c(=O)[nH]nc(CN)c3c2)c1-c1c(F)cc2ccccc2c1C#N (single isomer, unassigned) [Example 16-1] ?
6.12

* * *

- Measured Target: PRMT5/MEP50 complex (Homo sapiens (Human))
- Protocol Text: PRMT5:MEP50 HotSpot Assay (full-length histone H2A substrate, plus and minus MTA)
- Format: biochemical
- Assay Conditions: IC50 + 2 μM MTA, in the presence of 2 μM MTA
- Protocol: The PRMT5 inhibitory activity of compounds of the present invention was determined using either a PRMT5:MEP50 FlashPlate Assay (Reaction Biology Corporation) or a PRMT5:MEP50 HotSpot Assay (Reaction Biology Corporation). The assay uses recombinant full-length histone H2A as the PRMT5 substrate. […] The reaction was stopped and transferred to filter paper for detection. The amount of tritiated H2A in each sample was determined using a scintillation counter.
// reported log10(IC50) for each item listed
Lab note - IC50 converted to log10 from values in µM.

Here's what some known entries look like.
Quick one: log10(IC50) of NCc1n[nH]c(=O)c2ccc(-c3cncc(Oc4ccccc4)c3)cc12 [Example 3-50] ?
0.58

If you can, please state the reported log10(IC50) value of Cn1ncc(-c2ccc3c(=O)[nH]nc(CN)c3c2)c1-c1cc2ncccc2cc1C#N [Example 4-167] .
0.82

Reported log10(IC50) for Cn1ncc(-c2ccc3c(=O)[nH]nc(CN)c3c2)c1-c1cc2cccnc2cc1C#N [Example 4-166] : what is it?
0.65

// log10(IC50) lookup, key: Cn1ncc(-c2ccc3c(=O)[nH]nc(CN)c3c2)c1-c1ccc(Cl)cc1 [Example 4-96]
-0.06

For Cn1ncc(-c2ccc3c(=O)[nH]nc(CN)c3c2)c1-c1cc(-c2cnsc2)ccc1C#N [Example 12-7] , what is its reported log10(IC50)?
-0.22

Further cases:
Using the record for CCOc1ccc(-c2c(-c3ccc4c(=O)[nH]nc(CN)c4c3)cnn2C)cc1C#N [Example 4-145] , report its log10(IC50).
-0.06

Which log10(IC50) is reported for this compound? NCc1n[nH]c(=O)c2ccc(-c3cncc(Oc4cccc5cccnc45)c3)cc12 [Example 4-121]
-0.75

Requested field: log10(IC50). Item: COc1cc(Cl)c(C#N)c(-c2c(-c3ccc4c(=O)[nH]nc(CN)c4c3)cnn2C)c1 [Example 4-169]
0.13

* * *

- Measured Target: PRMT5/MEP50 complex (Homo sapiens (Human), UniProt O14744)
- Protocol Text: PRMT5:MEP50 FlashPlate Assay (histone H4 peptide substrate, plus and minus MTA)
- Type: biochemical
- Assay Conditions: in the absence of MTA, read-out: IC50
Experimental Readout: IC50 (nM)
Write the answer as a number in nM, unit excluded.

Answered cases to consult:
Can you share its IC50? I mean this compound: NCc1n[nH]c(=O)c2ccc(-c3cnn4c3CN(C(=O)C35CC(C3)C5)CC4)cc12
1220

What value of IC50 has been recorded for this entry: NCc1n[nH]c(=O)c2ccc(-c3cnc4[nH]cc(F)c4c3)cc12
1380

Looking for the measured IC50 of N#Cc1cc(F)ccc1-c1cncc(-c2ccc3c(=O)[nH]nc(CN)c3c2)c1 , can you help?
691

New cases:
I would be grateful if you could share the reported IC50 for Cc1c(-c2ccc3c(=O)[nH]nc(CN)c3c2)cnn1C .
1230
